Data credit: ChEMBL document CHEMBL4393726

test system: PC-3; assay: Cytotoxicity against human PC3 cells assessed as decrease in cell viability after 48 hrs by MTS assay; type: functional, cell-based; details: PC-3, 48 h
pIC50: −log10 of the molar value.

{"Substance smiles": "COc1ccccc1CNCCCN1C(=O)c2ccc3c4c(ccc(c24)C1=O)C(=O)N(CCCNCCCCN)C3=O", "pIC50": 5.61}
{"Substance smiles": "COc1ccc(CNCCCN2C(=O)c3ccc4c5c(ccc(c35)C2=O)C(=O)N(CCCNCc2ccc(OC)c(OC)c2OC)C4=O)c(OC)c1OC", "pIC50": 6.01}
